The origin of these recorded values is patent EP1660440B1.

conditions: human, s9, 1 h, 2 µM
parameterMeasured: % of Baclofen Released (%)
Write the number in % without appending the unit.

Form field % of Baclofen Released, entry CC(C)CC(=O)OCOC(=O)NC[C@H](CC(=O)[O-])c1ccc(Cl)cc1.[Na+] : 82

Briefly, % of Baclofen Released measured for CCOC(C)(OCC)C(=O)OCOC(=O)NC[C@H](CC(=O)[O-])c1ccc(Cl)cc1.[Na+] : 91

What the record says about O=C([O-])C[C@@H](CNC(=O)OCOC(=O)c1cccs1)c1ccc(Cl)cc1.[Na+] : % of Baclofen Released is 86

Lab note: CC(C)C(=O)OC(OC(=O)NC[C@H](CC(=O)[O-])c1ccc(Cl)cc1)C(C)C.[Na+] (stereo partly drawn) gave % of Baclofen Released of 91

GET /value?item= CCCC(=O)OC(OC(=O)NC[C@H](CC(=O)[O-])c1ccc(Cl)cc1)C1CCCCC1.[Na+] (stereo partly drawn) &field=% of Baclofen Released returns 84

Lab book: % of Baclofen Released of CC(C)C(=O)OC(OC(=O)NC[C@H](CC(=O)[O-])c1ccc(Cl)cc1)C1CCCCC1.[Na+] (stereo partly drawn) noted as 82

----------
Answer each item with its documented Papp A→B at 200 µM.
test: Caco-2 cellular permeability of prodrugs; conditions: human
Reply with just the number (in ×10⁻⁶ cm/s).

Notebook: CCCC(=O)OC(OC(=O)NC[C@H](CC(=O)O)c1ccc(Cl)cc1)C(C)C (some centres unmarked) [(27)] , Papp A→B at 200 µM read as 65

Data point: CC(C)C(OC(=O)NC[C@H](CC(=O)O)c1ccc(Cl)cc1)OC(=O)C(C)(C)C (some centres unmarked) [(43)] ; Papp A→B at 200 µM = 42

----------
assay: in vitro; details: human, liver s9
parameterMeasured: metabolised at 1 h, 2 µM
Hi, when you answer, please include the unit after the number. Thanks!

get_value(item= CCCC(=O)O[C@H](CCC)OC(=O)NC[C@H](CC(=O)O)c1ccc(Cl)cc1 , readout=metabolised at 1 h, 2 µM) returns 87%

For reference, reported metabolised at 1 h, 2 µM for CCCC(=O)OC(OC(=O)NC[C@H](CC(=O)O)c1ccc(Cl)cc1)C(C)C (stereo partly drawn) stands at 79%

Given item CC(C)C(OC(=O)NC[C@H](CC(=O)O)c1ccc(Cl)cc1)OC(=O)C(C)(C)C (stereo partly drawn) , the value recorded as its metabolised at 1 h, 2 µM is 39%

----------
settings: rat, plasma, 1 h, 2 µM
parameterMeasured: % of Prodrug Remaining (%)
Numbers only; they are read as %.

Quick note, % of Prodrug Remaining for O=C([O-])C[C@@H](CNC(=O)OCOC(=O)c1cccs1)c1ccc(Cl)cc1.[Na+] [(57)] landed at 82

// recorded % of Prodrug Remaining for CC(C)C(=O)O[C@H](C)OC(=O)NC[C@H](CC(=O)[O-])c1ccc(Cl)cc1.[Na+] [(34)] : 78

The reported % of Prodrug Remaining of the molecule CCC[C@H](OC(=O)NC[C@H](CC(=O)[O-])c1ccc(Cl)cc1)OC(=O)C(C)C.[Na+] [(91)] was 80

Lab book: % of Prodrug Remaining of CCCC(=O)OC(OC(=O)NC[C@H](CC(=O)[O-])c1ccc(Cl)cc1)C1CCCCC1.[Na+] (stereo partly shown) [(85)] noted as 82
